Just for reference, ChEMBL document CHEMBL1201862 is where these values come from.

Tested on: Malme-3M
Test: NCI tumour cell line growth inhibition, 48 h
Active and inactive are the calls of the source. Cut-off read from the data, not from the text of the source: active = GI50 up to about 1.1 µM and inactive = higher.
Entry note: the call must match one of true (active), false (inactive)

CC(=O)NC1=C(C)C(=O)c2c(nc3n2CCC3OC(=O)c2ccccc2)C1=N (stereo unspecified) | false
C=C(C)CC1=C(C(=S)NCCO[Si](C)(C)C(C)(C)C)C(OCC)(OCC)C1=O | false
CC(C)C1=C(O)C(=O)C2=C(C1=O)C(O)CC1C(C)(C)CCCC21C (stereo unspecified) | false
N=C(N)c1ccc(/N=N\c2c(O)ccc3c2[nH]c2ccccc23)cc1 | false
C[Si](C)(C)/C(I)=C/CO | false

Prompt line: Field: outcome | Entry: NC(=O)c1ccccc1[N+](=O)[O-]
Response line: false

Prompt line: Field: outcome | Entry: COC(=O)n1c(CBr)c(Br)c2ccccc21
Response line: false

---

Test system: A549
Test: NCI tumour cell line growth inhibition, 48 h
Calls of active or inactive are those of the source. No stated cut-off is given here; in the data, active = GI50 up to about 1.1 µM and inactive = higher.
Quick list: GI50 per entry.

Solved entries (count: 5):
N=C(N)SCCC(=O)CCSC(=N)N | > 100 µM (inactive)
O=C(O)c1cc(/C=C/c2ccc(O)c(O)c2)ccc1O | > 100 µM (inactive)
CC(=O)O.CN1CCN(CN2C(=O)C3C4C=CC(C3C2=O)C2C3C(=O)N(CN5CCN(C)CC5)C(=O)C3C42)CC1 (stereo unspecified) | 22 µM (inactive)
CC(C)=CCOc1cc(NC(=S)c2ccoc2C)ccc1Cl | > 100 µM (inactive)
COc1ccc2c(c1)c1c(n2CCN(C)C)-c2ccccc2CC1 | 15.6 µM (inactive)

Reading of GI50 for C=CC1(c2ccccc2Cl)N/C(=C/OCC)CO1 (stereo unspecified) with A549: 38.2 µM (inactive)

Reading of GI50 for C[n+]1[se]c2ccccc2c1Cl with A549: 32 µM (inactive)

Reading of GI50 for CC(C)C1=C(O)C(=O)C2=C(C1=O)C(O)CC1C(C)(C)CCCC21C (stereo unspecified) with A549: 4.56 µM (inactive)

Reading of GI50 for NCCCCC(=O)c1cccnc1 with A549: > 100 µM (inactive)

Reading of GI50 for Cc1nc2ccccc2c(=O)n1NC(=O)c1ccc(CS)cc1 with A549: 7.48 µM (inactive)

Reading of GI50 for Nc1cc(OCc2ccccc2)c(OCc2ccccc2)cc1C=O with A549: 23.8 µM (inactive)

---

Test system: SF-539
Assay: NCI tumour cell line growth inhibition, 48 h
The source made the active and inactive calls. Cut-off read from the data, not from the text of the source: active = GI50 up to about 1.1 µM and inactive = higher.
Entry note: the call must match one of YES (active), NO (inactive)

Answered examples (4):
CCC(C)C(=O)O[C@H]1C(=O)O[C@@H]2C[C@H]3C(C)=CC(=O)[C@@H](O)[C@]3(C)[C@H]3[C@@H](O)[C@H](O)[C@@]4(C)OC[C@]32[C@@H]14 (stereo not given in full) | YES
COC(=O)c1c2c(cc3c1CC1(C3)Cc3ccc4c(c3C1=O)CCC4)CCC2 (stereo not given) | NO
COc1cccc(N2C(=O)CSC2c2cccc(Oc3ccccc3)c2)c1 (stereo not given) | NO
CCOP(=O)(OCC)OC1CC(n2cc(C)c(=O)n(C)c2=O)OC1CO[Si](C)(C)C(C)(C)C (stereo not given) | NO

Prompt line: Field: outcome | Entry: COC(=O)C(Cc1ccc(N(C)C)cc1)(NC(=O)c1ccccc1)P(=O)(OC)OC (stereo not given)
Response line: NO

Prompt line: Field: outcome | Entry: CCN(CC)CCC1(C(=O)OC)SCCc2ccc(C)cc21 (stereo not given)
Response line: NO

Prompt line: Field: outcome | Entry: CC(=O)OCC1OC(Nc2ncc(-c3ccc(C)cc3)s2)C(OC(C)=O)C(OC(C)=O)C1OC(C)=O (stereo not given)
Response line: NO
